The measurements presented in this section are drawn from paper doi:10.1101/2024.02.15.580468v1.

- ASSAY REMARKS: in vitro
- Set-up: MTT viability assay, undifferentiated SH-SY5Y cells
- RUN CONDITIONS: human, undifferentiated sh-sy5y cells, read-out: SH-SY5Y IC50
Could you please report measured CC50 at 24 h for the items listed next?
Please respond with the number in µM and leave the unit unwritten.

What does the record list as CC50 at 24 h for `O=C(CNc1nc2cc([N+](=O)[O-])ccc2s1)Nc1c2c(nc3c1CCC3)CCCC2` ?
93.7

Same question for `CC12CC3CC(C)(C1)CC(NCC(=O)Nc1c4c(nc5c1CCC5)CCCC4)(C3)C2` please.
31

Same question for `N#Cc1ccc2sc(NCC(=O)Nc3c4c(nc5c3CCC5)CCCC4)nc2c1` please.
77.4

Same question for `O=C(CNc1nc2cc(Cl)ccc2s1)Nc1c2c(nc3c1CCC3)CCCC2` please.
98.2

Same question for `O=C(CNc1nc2ccc([N+](=O)[O-])cc2s1)Nc1c2c(nc3c1CCC3)CCCC2` please.
91.3

Same question for `O=C(CNc1nc2cc(Br)ccc2s1)Nc1c2c(nc3c1CCC3)CCCC2` please.
17.7

Same question for `O=C(CNc1nc2c(Br)cccc2s1)Nc1c2c(nc3c1CCC3)CCCC2` please.
111

====

Could you please report measured Papp for the items listed next?
- ASSAY REMARKS: in vitro
- Design: PAMPA blood-brain barrier permeability, effective permeability Pe
- RUN CONDITIONS: PAMPA-BBB Pe
Please respond with the number in ×10⁻⁶ cm/s and leave the unit unwritten.

What does the record list as Papp for Clc1nc2ccccc2s1 [7a, 2-chlorobenzothiazole] ?
20.6

Same question for O=C(CNc1nc2cc([N+](=O)[O-])ccc2s1)Nc1c2c(nc3c1CCC3)CCCC2 [7j] please.
1.83

Same question for O=C(CNc1nc2ccc([N+](=O)[O-])cc2s1)Nc1c2c(nc3c1CCC3)CCCC2 [7i] please.
4.89

Same question for O=C(CNc1nc2ccc(OC(F)(F)F)cc2s1)Nc1c2c(nc3c1CCC3)CCCC2 [7m] please.
2.54

====

- ASSAY REMARKS: in vitro
- Set-up: PAMPA blood-brain barrier permeability, effective permeability Pe
- RUN CONDITIONS: PAMPA-BBB Pe
- Excerpt: page 4 / Table S1. Inhibition activities of 5–7 and reference compounds (amiridine hydrochloride and THA). hAChE ± SEM^a hBChE ± SEM^a / Pe (10^-6 cm.s^-1)
READOUT LABEL: Papp
Answer format: number, then unit.

What does the record list as Papp for O=C(CNC12CC3CC(CC(C3)C1)C2)Nc1c2c(nc3c1CCC3)CCCC2 [5a] ?
23.4 ×10⁻⁶ cm/s

====

- TARGET OR SYSTEM: hBChE (human serum / plasmatic butyrylcholinesterase) (Homo sapiens, UniProt P06276)
- Construct: native enzyme from human plasma/serum, purchased from Sigma-Aldrich
- Sequence (P06276 29-602): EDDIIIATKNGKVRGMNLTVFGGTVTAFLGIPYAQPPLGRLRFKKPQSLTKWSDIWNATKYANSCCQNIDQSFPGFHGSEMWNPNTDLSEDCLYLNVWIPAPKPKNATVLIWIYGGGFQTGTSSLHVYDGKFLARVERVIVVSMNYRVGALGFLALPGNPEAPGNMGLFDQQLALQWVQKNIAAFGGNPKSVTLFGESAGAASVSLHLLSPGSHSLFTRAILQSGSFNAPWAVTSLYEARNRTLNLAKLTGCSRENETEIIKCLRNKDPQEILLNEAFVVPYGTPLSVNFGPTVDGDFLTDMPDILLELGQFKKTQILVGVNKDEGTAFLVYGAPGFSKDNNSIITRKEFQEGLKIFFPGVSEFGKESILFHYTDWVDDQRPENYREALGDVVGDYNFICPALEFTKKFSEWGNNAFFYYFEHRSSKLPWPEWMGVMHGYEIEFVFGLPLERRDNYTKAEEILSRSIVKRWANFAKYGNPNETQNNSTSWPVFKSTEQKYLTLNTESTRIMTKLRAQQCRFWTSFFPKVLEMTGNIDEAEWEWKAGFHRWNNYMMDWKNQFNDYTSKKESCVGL
- ASSAY REMARKS: modified Ellman assay, […] nm
Could you please report measured pIC50 for the items listed next?
Bear in mind: pIC50 is minus log10 of a mol/L concentration; give just that figure.

What does the record list as pIC50 for O=C(CNc1nc2cc(Cl)ccc2s1)Nc1c2c(nc3c1CCC3)CCCC2 [7g] ?
4.96

Same question for O=C(CNc1nc2cc(Br)ccc2s1)Nc1c2c(nc3c1CCC3)CCCC2 [7c] please.
5.31
